system: UO-31 renal; test: NCI tumour cell line growth inhibition, 48 h
measure-name: GI50

Worked set:
INSERT INTO measurements (compound, measured) VALUES
  ('O=S(=O)(Nc1cc(Cl)ccc1Cl)c1ccc(-c2cnc(C3CC3)o2)cc1', '2.49 µM'),
  ('Cc1ncsc1-c1ccc(CNC(=O)[C@@H]2C[C@@H](O)CN2C(=O)[C@@H](NC(=O)C2(C#N)CC2)C(C)(C)C)cc1', '> 100 µM'),
  ('COc1cc(O)c2c(c1)C(=O)c1cc3c(c(O)c1C2=O)C(OC1OC(C)C(O)C(O)C1OC)C(OC)C(C)(O)C3=O (stereo not drawn)', '1.87 µM'),
  ('N#CC1=C(N)NC(=S)NC12Nc1ccccc1N2', '55.2 µM'),
  ('CCCCCCCCCCCCOC1C(C(CC(=O)N2CCN(c3cccc(C(F)(F)F)c3)CC2)NS(=O)(=O)c2cc(Cl)cc(Cl)c2)OC2OC(C)(C)OC21 (stereo not drawn)', '> 100 µM'),
  ('COc1cc(-c2nn(-c3cccc(NC(=O)c4ccc(N5CCOCC5)c(C(F)(F)F)c4)c3)cc2-c2ccncc2)ccc1Cl', '0.322 µM'),
  ('C[n+]1ccc(-c2c3nc(c(-c4cc[n+](C)cc4)c4ccc([n-]4)c(-c4cc[n+](C)cc4)c4nc(c(-c5cc[n+](C)cc5)c5ccc2[n-]5)C=C4)C=C3)cc1.[I-].[Zn+2]', '17.3 µM');

Now for a further compound.
Just so you know, measured GI50 for `Nc1c(C(=O)c2ccc(CCCN3CCOCC3)cc2)cnn1-c1ccc(F)cc1` came out at > 25 µM
